Biological target: SmGPR-3 (Schistosoma mansoni, UniProt C4Q8W8)
Sequence (C4Q8W8 1-497): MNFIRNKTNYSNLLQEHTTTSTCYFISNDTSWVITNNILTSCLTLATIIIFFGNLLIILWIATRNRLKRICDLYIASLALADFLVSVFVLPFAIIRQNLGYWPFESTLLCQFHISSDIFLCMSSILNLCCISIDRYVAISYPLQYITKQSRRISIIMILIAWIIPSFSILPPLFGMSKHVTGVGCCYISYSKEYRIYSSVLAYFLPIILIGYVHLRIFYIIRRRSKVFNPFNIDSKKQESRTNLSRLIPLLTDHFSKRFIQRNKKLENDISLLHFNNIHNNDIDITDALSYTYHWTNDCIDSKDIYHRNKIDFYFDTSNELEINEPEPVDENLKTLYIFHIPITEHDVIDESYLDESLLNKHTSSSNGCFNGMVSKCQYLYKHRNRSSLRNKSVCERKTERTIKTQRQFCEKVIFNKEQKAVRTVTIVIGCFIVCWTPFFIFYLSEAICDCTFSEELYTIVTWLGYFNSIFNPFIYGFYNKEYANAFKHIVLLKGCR
Assay: cell-based
Conditions: each amine at 2×10^−4 M, relative to no drug control

- Compound: "NCCc1ccc(O)c(O)c1"
  SmGPR-3 activation by biogenic amine: "selectively activated"
- Compound: "CNCCc1ccc(O)c(O)c1 [epinine]"
  SmGPR-3 activation by biogenic amine: "selectively activated"

The measurements presented in this section are drawn from paper PMC3289605.
